# System: KM12 colon
# run-description: NCI tumour cell line growth inhibition, 48 h
measurement-kind: TGI

IN: Tell me its TGI on KM12 colon: C[C@]12CCC(=O)C=C1CC[C@@H]1[C@@H]2CC[C@]2(C)C(=O)/C(=C/c3cccc(OCCN4CCOCC4)c3)C[C@@H]12
OUT: > 100 µM

IN: Given Cc1ccccc1NC(=O)/C(C#N)=N\Nc1nc[nH]c1C(N)=O , report its TGI on KM12 colon.
OUT: > 100 µM

IN: Under KM12 colon: report TGI of C=CCN(N=O)C(=O)N(CCC)CCCCC(NC(C)=O)C(=O)NCc1ccccc1 (stereo not drawn) .
OUT: > 100 µM

IN: # return TGI of Cc1cc2nc3c(C#N)c(-c4ccccc4)cc(Nc4ccc(F)cc4)n3c2cc1C (system: KM12 colon)
OUT: > 100 µM

IN: Name the recorded TGI of COc1cc(C(=O)n2nc(N3CCN(C)CC3)c3cc(N)ccc32)cc(OC)c1OC , assay system KM12 colon.
OUT: 27.2 µM
